Tested on: PDC 899932-113-R3-J6 complex spheroid viability
Assay: Anticancer human tumor 899932-113-R3-J6-PDC patient-derived melanoma cell line growth inhibition [RAS]
Conditions: curve of first compound; second compound 3.16 µM
pIC50: −log10 of the molar value.
measured.property: pIC50

1) C=CC(=O)N1CCN(c2nc(OCC3CCCN3C)nc3c(F)c(-c4nc(N)cc(C)c4C(F)(F)F)c(Cl)cc23)C(C)C1 (stereo unspecified) + C#Cc1c(F)ccc2cc(O)cc(-c3ncc4c(N5CC6CCC(C5)N6)nc(OCC56CCCN5CC(F)C6)nc4c3F)c12
< 6.00
2) CC1(O)CCCC1n1c(=O)c(C(F)F)cc2cnc(NC3CCN(S(C)(=O)=O)CC3)nc21 (stereo unspecified) + C#Cc1c(F)ccc2cc(O)cc(-c3ncc4c(N5CC6CCC(C5)N6)nc(OCC56CCCN5CC(F)C6)nc4c3F)c12
5.52
3) CC(=O)OC12COC1CC(O)C1(C)C(=O)C(O)C3=C(C)C(OC(=O)C(O)C(NC(=O)OC(C)(C)C)c4ccccc4)CC(O)(C(OC(=O)c4ccccc4)C21)C3(C)C (stereo unspecified) + C#Cc1c(F)ccc2cc(O)cc(-c3ncc4c(N5CC6CCC(C5)N6)nc(OCC56CCCN5CC(F)C6)nc4c3F)c12
> 7.50
4) Cc1nc(N2CCC3(CC2)COC(C)C3N)c(CO)nc1Sc1ccnc(N)c1Cl (stereo unspecified) + C#Cc1c(F)ccc2cc(O)cc(-c3ncc4c(N5CC6CCC(C5)N6)nc(OCC56CCCN5CC(F)C6)nc4c3F)c12
< 5.00
5) CC(C)n1nc(-c2ccc3oc(N)nc3c2)c2c(N)ncnc21 + C#Cc1c(F)ccc2cc(O)cc(-c3ncc4c(N5CC6CCC(C5)N6)nc(OCC56CCCN5CC(F)C6)nc4c3F)c12
< 7.00

Consider now this further compound.
Query block: Query (compound): Nc1ccn(C2OC(CO)C(O)C2(F)F)c(=O)n1 (stereo unspecified) + C#Cc1c(F)ccc2cc(O)cc(-c3ncc4c(N5CC6CCC(C5)N6)nc(OCC56CCCN5CC(F)C6)nc4c3F)c12 ; field requested: pIC50
Result block: 7.78

====

Test system: PDC 899932-113-R3-J6 complex spheroid viability
Assay: Anticancer human tumor 899932-113-R3-J6-PDC cell line growth inhibition [RAS]; active means viability on the fitted dose curve at most 10% of control; inactive means the rest
Conditions: second compound 0.0949 µM; first compound 0.1 µM
Please answer using one outcome listed in YES for active, NO for inactive

Look over these answered cases.
1. CC(=O)OC12COC1CC(O)C1(C)C(=O)C(O)C3=C(C)C(OC(=O)C(O)C(NC(=O)OC(C)(C)C)c4ccccc4)CC(O)(C(OC(=O)c4ccccc4)C21)C3(C)C (stereo not drawn) + CCn1c(-c2cc(N3CCN(C)CC3)cnc2C(C)OC)c2c3cc(ccc31)-c1csc(n1)CC(NC(=O)C1CC1C)C(=O)N1CCCC(N1)C(=O)OCC(C)(C)C2
YES
2. Nc1ccn(C2OC(CO)C(O)C2(F)F)c(=O)n1 (stereo not drawn) + CCn1c(-c2cc(N3CCN(C)CC3)cnc2C(C)OC)c2c3cc(ccc31)-c1csc(n1)CC(NC(=O)C1CC1C)C(=O)N1CCCC(N1)C(=O)OCC(C)(C)C2
YES
3. Cc1nc(N2CCC3(CC2)COC(C)C3N)c(CO)nc1Sc1ccnc(N)c1Cl (stereo not drawn) + CCn1c(-c2cccnc2C(C)OC)c2c3cc(ccc31)N1CCOC(CC(NC(=O)C(C(C)C)N(C)C(=O)C3(F)CCN(C(=O)C#CC(C)(C)N(C)C)CC3)C(=O)N3CCCC(N3)C(=O)OCC(C)(C)C2)C1
NO
4. CCC(CC)c1cc(NC2CCC(N)C2)n2nccc2n1 (stereo not drawn) + CCn1c(-c2cccnc2C(C)OC)c2c3cc(ccc31)N1CCOC(CC(NC(=O)C(C(C)C)N(C)C(=O)C3(F)CCN(C(=O)C#CC(C)(C)N(C)C)CC3)C(=O)N3CCCC(N3)C(=O)OCC(C)(C)C2)C1
NO
5. Cc1nc(N2CCC3(CC2)COC(C)C3N)c(CO)nc1Sc1ccnc(N)c1Cl (stereo not drawn) + CCn1c(-c2cc(N3CCN(C)CC3)cnc2C(C)OC)c2c3cc(ccc31)-c1csc(n1)CC(NC(=O)C1CC1C)C(=O)N1CCCC(N1)C(=O)OCC(C)(C)C2
YES

Query block: Would you mind telling me which call this test gave C[C@@H](NC(=O)c1ncnc(N)c1Cl)c1ncc(C(=O)Nc2cc(C(F)(F)F)c(Cl)cn2)s1 + CCn1c(-c2cccnc2C(C)OC)c2c3cc(ccc31)N1CCOC(CC(NC(=O)C(C(C)C)N(C)C(=O)C3(F)CCN(C(=O)C#CC(C)(C)N(C)C)CC3)C(=O)N3CCCC(N3)C(=O)OCC(C)(C)C2)C1 ?
Result block: NO

Query block: Could you kindly confirm the outcome this assay logged for CC1(O)CCCC1n1c(=O)c(C(F)F)cc2cnc(NC3CCN(S(C)(=O)=O)CC3)nc21 (stereo not drawn) + CCn1c(-c2cccnc2C(C)OC)c2c3cc(ccc31)N1CCOC(CC(NC(=O)C(C(C)C)N(C)C(=O)C3(F)CCN(C(=O)C#CC(C)(C)N(C)C)CC3)C(=O)N3CCCC(N3)C(=O)OCC(C)(C)C2)C1 ?
Result block: NO

Query block: Query: recorded result category for C[C@@H](NC(=O)c1ncnc(N)c1Cl)c1ncc(C(=O)Nc2cc(C(F)(F)F)c(Cl)cn2)s1 + CCn1c(-c2cc(N3CCN(C)CC3)cnc2C(C)OC)c2c3cc(ccc31)-c1csc(n1)CC(NC(=O)C1CC1C)C(=O)N1CCCC(N1)C(=O)OCC(C)(C)C2 in this test
Result block: YES

====

Tested on: PDC 899932-113-R3-J6 complex spheroid viability
Test: Anticancer human tumor 899932-113-R3-J6-PDC cell line growth inhibition [RAS]; active = viability on the fitted dose curve at most 10% of control; inactive = the rest
Settings: second compound 0.01 µM; first compound 1 µM
Would you mind answering with one of these outcomes? Yes (active), No (inactive)

Query block: How did this test come out for CC(Nc1ccc2c(c1)OCCn1cc(N3C(=O)OCC3C(F)F)nc1-2)C(N)=O (configuration not stated) + C=CC(=O)N1CCN(c2nc(OCC3CCCN3C)nc3c(F)c(-c4nc(N)cc(C)c4C(F)(F)F)c(Cl)cc23)C(C)C1 ?
Result block: No

Query block: Please indicate how the test categorized CC(C)NCC(C(=O)N1CCN(c2ncnc3c2C(C)CC3O)CC1)c1ccc(Cl)cc1 (configuration not stated) + C=CC(=O)N1CCN(c2nc(OCC3CCCN3C)nc3c(F)c(-c4nc(N)cc(C)c4C(F)(F)F)c(Cl)cc23)C(C)C1 .
Result block: No

Query block: How was O=C(c1ccc(F)c(F)c1Nc1ccc(I)cc1F)N1CC(O)([C@@H]2CCCCN2)C1 + C=CC(=O)N1CCN(c2nc(OCC3CCCN3C)nc3c(F)c(-c4nc(N)cc(C)c4C(F)(F)F)c(Cl)cc23)C(C)C1 classified in this test?
Result block: Yes

Query block: Tell me the recorded outcome of this test for Cc1nc(N2CCC3(CC2)COC(C)C3N)c(CO)nc1Sc1ccnc(N)c1Cl (configuration not stated) + C=CC(=O)N1CCN(c2nc(OCC3CCCN3C)nc3c(F)c(-c4nc(N)cc(C)c4C(F)(F)F)c(Cl)cc23)C(C)C1 .
Result block: No

Query block: Given C[C@@H](NC(=O)c1ncnc(N)c1Cl)c1ncc(C(=O)Nc2cc(C(F)(F)F)c(Cl)cn2)s1 + C=CC(=O)N1CCN(c2nc(OCC3CCCN3C)nc3c(F)c(-c4nc(N)cc(C)c4C(F)(F)F)c(Cl)cc23)C(C)C1 , state the outcome it received in this test.
Result block: No

Query block: Dear colleague, could you share the recorded outcome for Nc1ccn(C2OC(CO)C(O)C2(F)F)c(=O)n1 (configuration not stated) + C=CC(=O)N1CCN(c2nc(OCC3CCCN3C)nc3c(F)c(-c4nc(N)cc(C)c4C(F)(F)F)c(Cl)cc23)C(C)C1 when you have a moment?
Result block: No

Query block: Please state the recorded outcome for this molecule: NC1c2ccccc2OC12CCN(c1cnc3c(N4CCCc5ncccc54)n[nH]c3n1)CC2 (configuration not stated) + C=CC(=O)N1CCN(c2nc(OCC3CCCN3C)nc3c(F)c(-c4nc(N)cc(C)c4C(F)(F)F)c(Cl)cc23)C(C)C1
Result block: No

Query block: Which outcome was assigned to CCC(CC)c1cc(NC2CCC(N)C2)n2nccc2n1 (configuration not stated) + C=CC(=O)N1CCN(c2nc(OCC3CCCN3C)nc3c(F)c(-c4nc(N)cc(C)c4C(F)(F)F)c(Cl)cc23)C(C)C1 in this test?
Result block: No

Query block: Would you mind telling me which call this test gave C=CC(=O)Nc1cc(Nc2nccc(-c3cn(C)c4ccccc34)n2)c(OC)cc1N(C)CCN(C)C + C=CC(=O)N1CCN(c2nc(OCC3CCCN3C)nc3c(F)c(-c4nc(N)cc(C)c4C(F)(F)F)c(Cl)cc23)C(C)C1 ?
Result block: No

Query block: Outcome? CCN1CCN(Cc2ccc(Nc3ncc(F)c(-c4cc(F)c5nc(C)n(C(C)C)c5c4)n3)nc2)CC1 + C=CC(=O)N1CCN(c2nc(OCC3CCCN3C)nc3c(F)c(-c4nc(N)cc(C)c4C(F)(F)F)c(Cl)cc23)C(C)C1
Result block: No

Query block: Hi, do you know how CC1(O)CCCC1n1c(=O)c(C(F)F)cc2cnc(NC3CCN(S(C)(=O)=O)CC3)nc21 (configuration not stated) + C=CC(=O)N1CCN(c2nc(OCC3CCCN3C)nc3c(F)c(-c4nc(N)cc(C)c4C(F)(F)F)c(Cl)cc23)C(C)C1 came out in this test?
Result block: No

Query block: What was the test verdict on CC(=O)OC12COC1CC(O)C1(C)C(=O)C(O)C3=C(C)C(OC(=O)C(O)C(NC(=O)OC(C)(C)C)c4ccccc4)CC(O)(C(OC(=O)c4ccccc4)C21)C3(C)C (configuration not stated) + C=CC(=O)N1CCN(c2nc(OCC3CCCN3C)nc3c(F)c(-c4nc(N)cc(C)c4C(F)(F)F)c(Cl)cc23)C(C)C1 ?
Result block: No

Entry source: PubChem BioAssay AID2060895
